Sourced from patent US20040092720A1

# target or test system: T1, recombinant human IL-6 (human, UniProt P05231 30-212, labeled with radioactive iodine)
# T1 construct: Labeled probe in solution, added to wells that carry the synthetic peptides; also called IL-6 ligand; Interleukin-6
# procedure summary: radioiodinated IL-6 on peptide array
# Excerpt: Synthetic peptide arrays were constructed in 96-well microtiter plates in accordance with the method set forth in WO 91/02714 (Saxinger), and used to test the binding of recombinant human IL-6 that had been labeled with radioactive iodine (radiolabeling by standard methods). […]
value type: Counts/minute bound (counts/minute)
Express the result in counts/minute but write the number alone.

Consider the reported Counts/minute bound for these binders:
binder: ERSKTFT (also called ERSKTFT) [Peptide C31]
measurement unit: counts/minute
Counts/minute bound: 1030
//
binder: AERSKTFT [Peptide C30]
measurement unit: counts/minute
Counts/minute bound: 1200
//
binder: PRSTPSLTTKAALLVRKFQNS (alanine-scan variant of the domain II 21-mer) [Peptide B43]
measurement unit: counts/minute
Counts/minute bound: 7160
//
binder: PRSTPSLTTAAVLLVRKFQNS (alanine-scan variant of the domain II 21-mer) [Peptide B44]
measurement unit: counts/minute
Counts/minute bound: 19500
//
binder: SSFYRL (also called SSFYRL) [Peptide C16]
measurement unit: counts/minute
Counts/minute bound: 865

Quick check: Counts/minute bound of PRSTPSLTTKAVLLVR [Peptide B6] ?
4360

What about this binder? SSFYRLRFELRY [Peptide C10]
1350

What about this binder? AAGSHPSRWAGMGRR [Peptide A7]
1340
